Test: in vitro
Conditions: human, hek293t cells
quantity.name: viability at 48 h, 25 µM (%)
# unit: % | format: bare number

C=CC(=O)Nc1cc(NC(=O)[C@@H]2CSCN2C(=O)CC)ccc1F = 91.2
Cc1ccc(NC(=O)C(C#N)=Cc2ccc3c(c2)OCCO3)c(C)c1 = 107
C=CC(=O)NC1c2cccc(F)c2CCC1C (stereo not drawn) = 92.8
CC(Cl)C(=O)Nc1ccc2ccccc2c1 (stereo not drawn) [5-H10, 2-chloro-N-(naphthalen-2-yl)propanamide] = 90.7
N#CC(=Cc1cccc(Cl)c1Cl)C(=O)NCc1ccco1 = 52.4
CC1CC(NC(=O)CCl)C(=O)N1c1cnn(C)c1 (stereo not drawn) = 100

[ask] Entry under review: C=CC(=O)N1CCC(C)C1 (stereo not drawn) . Reported viability at 48 h, 25 µM?
[reply] 71.5

[ask] Entry under review: Cc1csc(Cl)c1NC(=O)CCl . Reported viability at 48 h, 25 µM?
[reply] 0.632

[ask] Entry under review: C=CC(=O)Nc1cc(NC(=O)C2CC3CCC2CC3)ccc1F (stereo not drawn) . Reported viability at 48 h, 25 µM?
[reply] 2.94

[ask] Entry under review: O=C(CCl)Nc1ccc(S(=O)(=O)N2CCCCC2)cc1 . Reported viability at 48 h, 25 µM?
[reply] 0.963

[ask] Entry under review: CCc1ccccc1NC(=O)CNC(=O)CCl . Reported viability at 48 h, 25 µM?
[reply] 0.8

[ask] Entry under review: C=CC(=O)NCc1ccc(N2CC(C)CS2(=O)=O)cc1 (stereo not drawn) . Reported viability at 48 h, 25 µM?
[reply] 95.4

[ask] Entry under review: CCn1c2ccccc2c2cc(NC(=O)C(C)Cl)ccc21 (stereo not drawn) . Reported viability at 48 h, 25 µM?
[reply] 55.6

###

Below, each of the compounds is paired with its reported viability at 48 h, 25 µM value.
Experiment: in vitro
Details: human, hek293t cells
# unit: % | format: bare number

Answered examples (3):
O=C(CCl)NC1CCCc2c1cnn2Cc1ccccc1 (centres unmarked) = 0.873
N#CC(C(=O)NC1CCCCC1)=C1N=C(N)c2ccccc21 = 80.2
CNC(=O)c1cc(OC2CCN(C(=O)C(C)Cl)C2)ccn1 (centres unmarked) = 111

[ask] Entry under review: CCCCNC(=O)C(C#N)=Cc1cccs1 . Reported viability at 48 h, 25 µM?
[reply] 117

[ask] Entry under review: COc1ccc(C=C(C#N)C(=O)Nc2ccc(C)c(C)c2)cc1 . Reported viability at 48 h, 25 µM?
[reply] 87.4

###

Test: in vitro
Details: human, hek293t cells
class 1 if viability at 48 h, 25 µM is below 40%. class 0 if not; exact matches included in class 0.

The examples below pair each entry with its known result.
CC(C)C(NC(=O)CCl)c1ccc(Cl)cc1F (centres unmarked) [7-J22] = class 1
CN(C(=O)c1ccccc1)C1CC2CCC(C1)N2C(=O)CCl (centres unmarked) [5-J03] = class 1
CCS(=O)(=O)c1ccc(NC(=O)CCl)c(O)c1 [4-P21] = class 0

[ask] Field: below-cutoff. Rule: recorded viability at 48 h, 25 µM strictly less than 40%. Subject: C=CC(=O)N1CCC(Cc2nccs2)C1 (centres unmarked) [3-O16]
[reply] class 0

[ask] Field: below-cutoff. Rule: recorded viability at 48 h, 25 µM strictly less than 40%. Subject: C=CC(=O)NC1CCOC1C (centres unmarked) [1-F06, N-(2-methyloxolan-3-yl)prop-2-enamide]
[reply] class 0

[ask] Field: below-cutoff. Rule: recorded viability at 48 h, 25 µM strictly less than 40%. Subject: COC(=O)C(C(=O)CCl)=C1Nc2ccccc2N1 [10-G12]
[reply] class 0

[ask] Field: below-cutoff. Rule: recorded viability at 48 h, 25 µM strictly less than 40%. Subject: C=CC(=O)NCCC(=O)NC1CCSc2ccc(F)cc21 (centres unmarked) [3-D08]
[reply] class 0

[ask] Field: below-cutoff. Rule: recorded viability at 48 h, 25 µM strictly less than 40%. Subject: O=C(CCl)Nc1ccccc1S(=O)(=O)C(F)F [4-B18]
[reply] class 1

[ask] Field: below-cutoff. Rule: recorded viability at 48 h, 25 µM strictly less than 40%. Subject: CC(CC#N)Sc1ccccc1NC(=O)CCl (centres unmarked) [5-F14]
[reply] class 1

[ask] Field: below-cutoff. Rule: recorded viability at 48 h, 25 µM strictly less than 40%. Subject: CC(Cl)C(=O)Nc1cc([N+](=O)[O-])ccc1Cl (centres unmarked) [6-I14]
[reply] class 0

[ask] Field: below-cutoff. Rule: recorded viability at 48 h, 25 µM strictly less than 40%. Subject: O=C(CCl)NC1CCN(C(=O)c2ccco2)c2ccccc21 (centres unmarked) [5-O07]
[reply] class 1

###

Below, each of the compounds is paired with its reported viability at 48 h, 25 µM value.
Assay: in vitro
Conditions: human, hek293t cells
# unit: % | format: bare number

Answered examples (5):
C=CC(=O)N(C)c1ccc(C#N)c(Cl)c1 = 0.69
CC(C)NC(=O)C(C#N)=Cc1ccc2c(c1)OCCO2 = 118
O=C(CCl)Nc1ncc[nH]1 = 37.4
CC(Cl)C(=O)N(C)c1ccccc1 (stereo not drawn) [5-D06, 2-chloro-N-methyl-N-phenylpropanamide] = 102
N#CC(=Cc1c(Cl)cccc1Cl)C(=O)NCCc1ccccc1 = 2

Could you now look at the following compound, please?
[ask] Entry under review: C=CC(=O)Nc1ccc(OCCC)c(C)c1 . Reported viability at 48 h, 25 µM?
[reply] 80.1

###

Assay: in vitro
Conditions: human, hek293t cells
quantity.name: viability at 48 h, 25 µM

CC(Cl)C(=O)N1CCOC(c2ccc(Cl)s2)C1 (centres unmarked) [6-N07] = 111%
CC(Cl)C(=O)N1CC=C(C(F)(F)F)CC1 (centres unmarked) [5-J19] = 118%

[ask] Entry under review: C=CC(=O)N1CCOCC2(CCOCC2)C1 [2-C10] . Reported viability at 48 h, 25 µM?
[reply] 85.4%

[ask] Entry under review: CC(Cl)C(=O)N1CCNC(=O)C1c1c(F)cccc1Cl (centres unmarked) [6-D07] . Reported viability at 48 h, 25 µM?
[reply] 107%

###

Experiment: in vitro
Conditions: human, hek293t cells
Condition met if viability at 48 h, 25 µM is below 90%. Condition not met if not; exact matches included in Condition not met.

The examples below pair each entry with its known result.
C=CC(=O)NC(C)C1(S(C)(=O)=O)CC1 (stereo not drawn) [2-P05] = Condition met
C=CC(=O)Nc1ccc(C(=O)N2CCCCC2c2noc(C)n2)cc1 (stereo not drawn) [2-C20] = Condition met
C=CC(=O)N1CCC(C(=O)N(C)C(C)Cc2ccc(C)cc2)CC1 (stereo not drawn) [2-F14] = Condition met
C=CC(=O)Nc1conc1-c1ccccc1 [1-I09] = Condition met

[ask] Field: below-cutoff. Rule: recorded viability at 48 h, 25 µM strictly less than 90%. Subject: C=CC(=O)NCc1nc(-c2ccc(F)cc2)n[nH]1 [3-D04]
[reply] Condition not met

[ask] Field: below-cutoff. Rule: recorded viability at 48 h, 25 µM strictly less than 90%. Subject: Cc1ccc(C)c(-c2cc(NC(=O)CCl)n(-c3ccccc3)n2)c1 [4-M14]
[reply] Condition met

[ask] Field: below-cutoff. Rule: recorded viability at 48 h, 25 µM strictly less than 90%. Subject: CC(C)c1cc(O)nc(N2CCC(NC(=O)CCl)C2)n1 (stereo not drawn) [4-D13]
[reply] Condition met

[ask] Field: below-cutoff. Rule: recorded viability at 48 h, 25 µM strictly less than 90%. Subject: Cn1cc(C=C(C#N)C(=O)NC2CCCC2)c(-c2ccncc2)n1 [9-L16]
[reply] Condition not met

[ask] Field: below-cutoff. Rule: recorded viability at 48 h, 25 µM strictly less than 90%. Subject: C=CC(=O)Nc1ccc2nc(O)n(C3CC3)c2c1 [2-K16]
[reply] Condition met

[ask] Field: below-cutoff. Rule: recorded viability at 48 h, 25 µM strictly less than 90%. Subject: CC(C)N1C(=O)C[C@H](NC(=O)CCl)[C@H]1c1ccc(Cl)c(F)c1 (racemic) [5-I11]
[reply] Condition met

[ask] Field: below-cutoff. Rule: recorded viability at 48 h, 25 µM strictly less than 90%. Subject: Cc1cc(C(=O)CCl)c(C)n1CCc1ccccc1 [10-B18]
[reply] Condition met

[ask] Field: below-cutoff. Rule: recorded viability at 48 h, 25 µM strictly less than 90%. Subject: C=CC(=O)Nc1cc(C)n(CC(C)c2nnc3n2CCCCC3)n1 (stereo not drawn) [2-A17]
[reply] Condition not met

[ask] Field: below-cutoff. Rule: recorded viability at 48 h, 25 µM strictly less than 90%. Subject: CC(C)C1C(=O)Nc2ccc(Cl)cc2N1C(=O)CCl (stereo not drawn) [5-C11]
[reply] Condition met
